Each item that follows carries a reported Dmax.
# system_tested: Androgen Receptor (Homo sapiens, UniProt P10275)
# Construct: endogenous in cells; host or cells: VCaP cells
# Sequence (P10275 1-920): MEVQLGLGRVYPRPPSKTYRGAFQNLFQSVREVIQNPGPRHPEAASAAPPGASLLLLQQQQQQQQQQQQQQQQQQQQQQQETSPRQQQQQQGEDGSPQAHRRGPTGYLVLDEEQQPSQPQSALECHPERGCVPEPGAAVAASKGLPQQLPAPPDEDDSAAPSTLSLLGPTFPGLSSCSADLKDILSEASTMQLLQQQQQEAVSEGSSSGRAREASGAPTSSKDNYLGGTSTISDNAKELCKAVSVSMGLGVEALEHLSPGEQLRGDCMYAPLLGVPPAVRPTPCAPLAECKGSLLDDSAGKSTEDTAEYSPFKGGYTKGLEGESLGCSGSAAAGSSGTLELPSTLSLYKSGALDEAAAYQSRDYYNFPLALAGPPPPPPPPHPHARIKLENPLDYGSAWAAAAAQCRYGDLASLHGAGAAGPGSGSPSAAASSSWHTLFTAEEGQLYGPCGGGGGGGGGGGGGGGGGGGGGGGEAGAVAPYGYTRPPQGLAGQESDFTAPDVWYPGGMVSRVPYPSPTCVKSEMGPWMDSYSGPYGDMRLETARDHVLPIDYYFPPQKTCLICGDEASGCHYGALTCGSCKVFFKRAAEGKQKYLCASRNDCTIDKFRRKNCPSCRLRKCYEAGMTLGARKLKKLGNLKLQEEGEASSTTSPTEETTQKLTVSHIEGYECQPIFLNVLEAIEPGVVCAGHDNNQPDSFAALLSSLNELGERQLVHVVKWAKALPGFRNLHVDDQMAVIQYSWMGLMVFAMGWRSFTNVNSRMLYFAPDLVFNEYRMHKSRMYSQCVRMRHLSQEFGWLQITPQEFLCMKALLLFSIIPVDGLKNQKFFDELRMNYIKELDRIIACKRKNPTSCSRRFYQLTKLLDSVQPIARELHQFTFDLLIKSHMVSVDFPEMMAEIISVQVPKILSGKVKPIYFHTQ
# protocol_text: Androgen Receptor ELISA assay (PathScan AR ELISA) in VCaP cells: AR degradation, Dmax and DC50
# Assay type: cell-based
# experimental_setup: VCaP, read-out: VCaP Dmax (%)

>  <compound_string>
Cc1ncsc1-c1ccc([C@H](C)NC(=O)[C@@H]2C[C@@H](O)CN2C(=O)[C@@H](NC(=O)[C@H](CO)N2CCN(CCOc3ccc(C(=O)N[C@H]4C(C)(C)[C@H](Oc5ccc(C#N)c(Cl)c5)C4(C)C)cc3)CC2)C(C)(C)C)cc1

>  <Dmax>
26 to 50%

$$$$
>  <compound_string>
Cc1ncsc1-c1ccc(CNC(=O)[C@@H]2C[C@@H](O)CN2C(=O)[C@@H](NC(=O)COCCOCCOCCOc2ccc(N3C(=S)N(c4ccc(C#N)c(C(F)(F)F)c4)C(=O)C3(C)C)cc2)C(C)(C)C)cc1

>  <Dmax>
26 to 50%

$$$$
>  <compound_string>
Cc1ncsc1-c1ccc(CNC(=O)[C@@H]2C[C@@H](O)CN2C(=O)[C@@H](NC(=O)COCCCCCOC2CCN(C(=O)c3ccc(N4C(=S)N(c5ccc(C#N)c(C(F)(F)F)c5)C(=O)C4(C)C)cc3)CC2)C(C)(C)C)cc1

>  <Dmax>
26 to 50%

$$$$
>  <compound_string>
Cc1ncsc1-c1ccc(CNC(=O)[C@@H]2C[C@@H](O)CN2C(=O)[C@@H](NC(=O)COCCCCNc2ccc(-c3ccc(N4C(=S)N(c5ccc(C#N)c(C(F)(F)F)c5)C(=O)C4(C)C)cc3)cc2)C(C)(C)C)cc1

>  <Dmax>
> 71%

$$$$
